Target: T1, hK1 (human tissue kallikrein 1), recombinant (human, UniProt P06870 25-262)
T1 construct: Expressed in P. pastoris from KLK1 cDNA and purified; enzymatically active; also called KLK1; Recombinant (Pichia) Kallikrein
Experiment: SPR
property-label: koff (s⁻¹)
Give just the numeric value; s⁻¹ need not be written.

Worked cases, answers included:
Can you share its koff? I mean this binder: M0125-C04 (Fab, V domains shown) VH: EVQLLESGGGLVQPGGSLRLSCAASGFTFSHYVMDWVRQAPGKGLEWVSSIYPSGGWTRYADSVKGRFTISRDNSRNTLYLQMNSLRAEDTAVYYCARRGQWLVLDYWGQGTLVTVSS VL: AQSELTQPASVSGSPGQSITISCAGTSSDLGGYDYVSWYQQYPGKAPKLIIYQVGRRPSGVSNRFSGSKSGNTASLTISGLQTEDEADYYCSSYTSSRTRVFGGGTRVTVLG
0.00536

Another binder: M0103-E09 (Fab, V domains shown) VH: EVQLLESGGGLVQPGGSLRLSCAASGFTFSHYSMLWVRQAPGKGLEWVSSIRPSGGFTKYADSVKGRFTISRDNSKNTLYLQMNSLRAEDTAVYYCARRGVWDAFDIWGQGTMVTVSS VL: AQYELTQPASVSGSPGQSITISCTGTNTDVGGYNFVSWYQQYPGKAPKLIIFDVTNRPSGVSNRFSGSKSGNTASLTISGLQAEDEADYYCCSYTNTNTLVFAGGTKVTVLG
0.00884

--- query ---
Can you share its koff? I mean this binder: M0112-C12 (Fab, V domains shown) VH: EVQLLESGGGLVQPGGSLRLSCAASGFTFSRYMMYWVRQAPGKGLEWVSSIYPSGGKTLYADSVKGRFTISRDNSKNTLYLQMNSLRAEDTAVYYCARVGVWYGMDVWGQGTTVTVSS VL: DIQMTQSPGTLSLSPGERATLSCRASQSVSSSYLAWYQQKPGQAPRLLIYGASSRATGIPDRFSGSGSGTEFTLTISSLQSEDSAVYYCQQYNNWPPLTFGGGTKVEIKR
0.00465
